Just for reference, patent US20100183600A1 is where these values come from.

Test: Equilibrium solubility at varying pH (shake flask)
Assay type: physicochemical
Settings: aqueous buffer (100 mM phosphate buffer), 25 °C, pH 7.4, aqueous buffer, thermodynamic from solid
MEASURED METRIC: solubility

> print(dat)
                                  structure  measured.metric  recorded.measurement
1  Cn1ccc(S(=O)(=O)N2CCC[C@@H](Nc3nccc(-c4c(-c5cccc(OCOP(=O)(O)O)c5)nc5occn45)n3)C2)n1       solubility           > 300 mg/mL

* * *

Target: mutant B-RAF (Homo sapiens, UniProt P15056, V600E)
Construct: purchased Upstate (Charlottesville, Va.)
Sequence (P15056 whole entry V600E): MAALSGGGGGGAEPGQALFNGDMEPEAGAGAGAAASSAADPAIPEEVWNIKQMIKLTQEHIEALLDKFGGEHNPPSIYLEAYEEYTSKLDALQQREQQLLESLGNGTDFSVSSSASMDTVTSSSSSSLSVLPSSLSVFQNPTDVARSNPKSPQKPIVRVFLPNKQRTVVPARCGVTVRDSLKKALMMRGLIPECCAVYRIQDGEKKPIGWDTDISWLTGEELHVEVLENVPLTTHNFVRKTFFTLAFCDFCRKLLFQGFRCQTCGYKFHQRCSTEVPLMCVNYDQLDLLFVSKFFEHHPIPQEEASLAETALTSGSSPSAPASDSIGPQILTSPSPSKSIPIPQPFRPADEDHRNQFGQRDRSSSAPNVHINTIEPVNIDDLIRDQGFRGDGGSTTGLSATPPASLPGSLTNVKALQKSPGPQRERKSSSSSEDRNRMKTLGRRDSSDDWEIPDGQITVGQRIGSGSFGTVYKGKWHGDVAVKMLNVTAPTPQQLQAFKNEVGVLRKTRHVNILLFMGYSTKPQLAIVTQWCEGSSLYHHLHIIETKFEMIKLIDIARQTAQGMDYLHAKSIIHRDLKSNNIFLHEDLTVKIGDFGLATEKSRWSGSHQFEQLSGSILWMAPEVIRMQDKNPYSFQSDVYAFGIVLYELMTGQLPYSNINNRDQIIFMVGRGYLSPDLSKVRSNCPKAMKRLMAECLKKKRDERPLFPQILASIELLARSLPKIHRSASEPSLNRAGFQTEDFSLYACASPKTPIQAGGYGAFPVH
Test: Measurement of RAF activity (MEK-1 phosphorylation)
Assay type: biochemical
Conditions: 50 μM ATP, MEK-1 substrate; read-out: Mut-B-Raf IC50
pIC50: −log10 of the molar value.
Below is a list of entries, each paired with its recorded pIC50 value.
MEASURED METRIC: pIC50

> print(dat)
                                  structure  recorded.measurement
1  O=S(=O)(c1ccc(Cl)cc1)N1CCC[C@@H](Nc2nccc(-c3c(-c4cccc(O)c4)nc4occn34)n2)C1                  8.00
2  O=S(=O)(c1ccc(Cl)cc1)N1CCC[C@@H](Nc2nccc(-c3c(-c4cccc(O)c4)nc4sccn34)n2)C1                  8.22
3  O=S(=O)(c1ccc(F)cc1)N1CCC(Nc2nccc(-c3c(-c4cccc(O)c4)nc4occn34)n2)CC1                  7.32
4  Cn1ccc(S(=O)(=O)N2CCC[C@@H](Nc3nccc(-c4c(-c5ccc(F)c(O)c5)nc5occn45)n3)C2)n1                  9.02
